Test system: zebrafish embryos
Test description: O-dianisidine staining of Hb in whole MO-injected embryos
Assay type: in vivo
Assay conditions: 48 hpf, vs control embryos (legend FIG. 2F)
Quantity name: O-dianisidine staining

1. adnp1a-MO: splicing morpholino antisense oligonucleotide to intron3-exon4 boundary of zebrafish adnp1a, 5′-TAGTCCTGCAACATTTGAGAAACCA-3′ (all phosphorodiamidate morpholino (PMO)) : Reduced staining
2. adnp1b-MO: translation-blocking morpholino to zebrafish adnp1b, 5′-TTGTTCACTGGGAGTTGAAACATTC-3′ (all phosphorodiamidate morpholino (PMO)) : Reduced staining
3. adnp2b-MO: translation-blocking morpholino to zebrafish adnp2b, 5′-ACCTTTTACTGGAAACTGGTACATG-3′ (all phosphorodiamidate morpholino (PMO)) : Reduced staining
